B1: minF1; the commonest letter at each place (parent)
chain: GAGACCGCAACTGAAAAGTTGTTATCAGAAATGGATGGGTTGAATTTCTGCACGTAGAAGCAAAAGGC

variants of: B1; experiment: fraction ligated after 30 min (ligated reads / total reads); higher = more ligase activity; conditions: with F1*subA RNA substrate (template-directed ligation), 42 °C
ENDPOINT: fraction ligated

MUT | RESULT
A29C G42C | 0.00616
A30C G42A | 0.217
A30T A35T | 0.0204
A29G T32C | 0.0215
G42A A44T | 0.0746
A24G A27T | 0.231
A30G A44G | 0.833
A24T A27G | 0.0839
A30C G42T | 0.0701
G34T G37C | 0.00496
G28C A43G | 0.0597
A44C | 0.646
C26G A27G | 0.0369
G42A A43T A44C | 0.00312
A30T G34A | 0.0989
G28C T36G | 0.0324
T36A A44G | 0.00875
A30T | 0.823
A24C T25C | 0.0235
A30C A31T | 0.771
A24G A44C | 0.00892
G34C G37T | 0.00343
G33T A43G | 0.0169
T25C A27G | 0.209
A31T G33C | 0.689
A35T G37C | 0.00461
A24G T32A | 0.00439
G34A A44C | 0.008
T25A C26T | 0.00642
A27C G34A | 0.15
G34C G42C | 0.00271
A27G G33A | 0.814
G28C A31T | 0.814
G33T T36A | 0.0253
A24T A31T | 0.00682
A29C G42A | 0.283
A24C T32G | 0.00553
C26G G37C | 0.00497
A24G G42T | 0.000969
T32C A43C | 0.00725
G28A A44T | 0.773
T25G | 0.0165
A35T G37A | 0.00299
A24C G28A | 0.0266
T36G A44C | 0.00345
A27G G33T | 0.807
A43T A44C | 0.00191
A24T G42A | 0.00238
A27G G37T | 0.0232
A35T | 0.037
A24G A44T | 0.016
A27C A35C | 0.481
A30C G33A | 0.773
A29T A43G | 0.0507
A31G G33A | 0.811
C26T T32G | 0.00682
T23C G28C | 0.224
T23G T36C | 0.0436
A27G G42A | 0.361
T36A G37C | 0.00357
A35G A44T | 0.105
A24C T32A | 0.00211
C26A T36G | 0.0133
T25G A29T | 0.0188
T25A A43C | 0.00284
T25C G28A | 0.15
A29G G37T | 0.0206
A29T T32G | 0.0161
T23G G37C | 0.00547
T36A G42C | 0.0064
T25G C26T | 0.00381
A27T A31T | 0.802
A30T G34C | 0.00584
G34C T36G | 0.00561
A27G T36A | 0.0472
A24G A43G | 0.00288
G37C A43C | 0.00193
A27C A30T | 0.403
T23A G34C | 0.00115
A27G A43T | 0.169
A27T T32A | 0.0711
G28C G34C | 0.00831
T25G A44G | 0.00956
T25G A27T | 0.0947
G33A A44C | 0.479
T23G G42A | 0.204
T25A A27T | 0.0564
A24C A35G | 0.00404
T25C A31C | 0.0548
T36G A43C | 0.00461
T25G A29C | 0.0105
